I'd appreciate it if you could supply inhibition at 50 µM values for the items below.
# target-or-test-system: human muscarinic receptor M3 (Homo sapiens)
# Construct: expressed in transfected cells; cultured in Ham's F-12 medium
# Sequence (P20309 whole entry): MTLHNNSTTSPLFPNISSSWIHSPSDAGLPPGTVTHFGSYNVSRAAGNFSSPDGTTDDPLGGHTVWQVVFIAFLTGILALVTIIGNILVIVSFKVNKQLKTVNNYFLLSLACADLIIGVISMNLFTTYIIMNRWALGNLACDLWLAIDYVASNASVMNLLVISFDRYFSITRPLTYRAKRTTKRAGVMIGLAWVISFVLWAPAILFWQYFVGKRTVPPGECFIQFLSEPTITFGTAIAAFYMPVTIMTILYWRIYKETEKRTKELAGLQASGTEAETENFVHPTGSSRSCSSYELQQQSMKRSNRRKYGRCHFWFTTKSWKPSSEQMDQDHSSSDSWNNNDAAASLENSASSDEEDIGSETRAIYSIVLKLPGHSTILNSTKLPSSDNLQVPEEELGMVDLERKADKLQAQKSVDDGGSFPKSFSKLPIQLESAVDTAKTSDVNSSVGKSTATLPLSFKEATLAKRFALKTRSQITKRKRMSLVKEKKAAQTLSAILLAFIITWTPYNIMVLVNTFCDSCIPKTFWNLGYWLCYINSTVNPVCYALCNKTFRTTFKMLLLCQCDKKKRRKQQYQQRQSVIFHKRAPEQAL
# protocol-description: Time-dependent inhibition of M3 activity, Fluo-4 NW calcium fluorescence
# Type: cell-based
# test-conditions: peptide 50 μM, 60 minutes (1 hour pre-incubation); read-out: % Inhibition hM3 receptor activity
Peptide text beside a SMILES is read from it. * marks the point of attachment. Palmitoyl = CCCCCCCCCCCCCCCC(=O)*; Myristoyl = CCCCCCCCCCCCCC(=O)*

{"columns": ["compound", "property-label", "test-value"],
 "data": [
  ["CCCCCCCCCCCCCCCC(=O)N[C@@H](Cc1c[nH]c2ccccc12)C(=O)N[C@@H](CCSC)C(=O)N[C@@H](CCCNC(=N)N)C(=O)N[C@@H](CC(C)C)C(=O)N[C@@H](CCCCN)C(=O)N[C@@H](C)C(N)=O [Seq. ID No. 3 Palmitoyl] (Palmitoyl-WMRLKA-NH2)", "inhibition at 50 µM", "73%"]
]}

input: Give its inhibition at 50 µM value. Item: CCCCCCCCCCCCCC(=O)N[C@@H](CCCNC(=N)N)C(=O)N[C@H](C(=O)N[C@@H](CCSC)C(=O)N[C@@H](Cc1ccccc1)C(=O)N[C@@H](CCCCN)C(=O)N[C@@H](CCSC)C(=O)N[C@@H](Cc1ccccc1)C(=O)N[C@@H](CCCCN)C(=O)N[C@@H](CCCNC(=N)N)C(=O)N[C@@H](CC(=O)O)C(=O)N[C@@H](Cc1ccc(O)cc1)C(N)=O)C(C)C [Seq. ID No. 8 Myristoyl] (Myristoyl-RVMFKMFKRDY-NH2)
output: 87.1%
